Source: patent US20230136252A1

- TEST TARGET: T1, recombinant human GPC2-His protein (human, UniProt Q8N158 24-554, limits assumed)
- T1 construct: Bought protein; The SPR paragraph gives no catalogue number for GPC2-His; also called recombinant Human Glypican 2 Protein; recombinant human GPC2 protein; not shown: His tag
- T1 sequence (looked up): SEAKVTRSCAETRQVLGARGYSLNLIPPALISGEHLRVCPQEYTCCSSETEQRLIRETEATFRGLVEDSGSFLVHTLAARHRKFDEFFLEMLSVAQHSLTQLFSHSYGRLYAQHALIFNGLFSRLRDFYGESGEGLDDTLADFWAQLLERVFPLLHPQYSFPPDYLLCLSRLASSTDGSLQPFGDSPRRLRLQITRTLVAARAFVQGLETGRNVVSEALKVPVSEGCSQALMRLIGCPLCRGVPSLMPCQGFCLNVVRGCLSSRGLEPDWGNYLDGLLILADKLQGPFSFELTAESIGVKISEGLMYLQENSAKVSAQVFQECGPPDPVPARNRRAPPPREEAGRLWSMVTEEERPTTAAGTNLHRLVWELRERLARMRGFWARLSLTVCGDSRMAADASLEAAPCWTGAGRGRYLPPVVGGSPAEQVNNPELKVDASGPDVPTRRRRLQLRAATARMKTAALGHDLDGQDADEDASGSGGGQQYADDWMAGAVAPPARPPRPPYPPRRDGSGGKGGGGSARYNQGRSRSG
- ASSAY NAME: SPR, Biacore T200, GPC2-His amine-coupled to CM5 chip, VHH-hIgG1Fc as analyte, 1:1 model
RESULT TYPE: Kd (nM)
Form entry: value (nM) — number only.

Name the recorded Kd for AS71529VH6-hIgG1Fc (Fc fusion, also called anti-GPC2 VHH-hIgG1Fc; not shown: human IgG1 Fc fragment (hIgG1Fc)) EVQLVESGGGLVQPGGSLRLSCAVSEYRYSSRYCMGWFRQAPGKGREGVAAIDSNGSADYVDSVKGRFTISKDNSKNTLYLQMNSLRAEDTAMYYCAADHLAYDCYSGATSVFRYWGQGTLVTVSS . 5.1
